- System: Hs578T
- condition_info: 72 h
Checkbox rule: EC50, CellTiter-Glo lower than 3 µM = y; EC50, CellTiter-Glo not lower than 3 µM = n.

Item `CC1(COc2ccc3c(c2)ncn3-c2ccc3cccc(N4CCC(N)CC4)c3n2)COC1` : EC50, CellTiter-Glo beneath 3 µM, strictly? n

Item `CC(=O)[C@]1(O)Cc2c(O)c3c(c(O)c2[C@@H](O[C@H]2C[C@H](N)[C@H](O)[C@H](C)O2)C1)C(=O)c1ccccc1C3=O` : EC50, CellTiter-Glo beneath 3 µM, strictly? y

Item CCN(CC)CCCC(C)Nc1ccnc2cc(Cl)ccc12 (stereo unspecified) : EC50, CellTiter-Glo beneath 3 µM, strictly? n

Item `CCNC(=O)c1noc(-c2cc(C(C)C)c(O)cc2O)c1-c1ccc(CN2CCOCC2)cc1` : EC50, CellTiter-Glo beneath 3 µM, strictly? y

Item `O=[N+]([O-])c1ccc2c(c1)S(=O)(=O)C=C2` : EC50, CellTiter-Glo beneath 3 µM, strictly? n

* * *

Can you tell me normalised response for the items I'm about to list?
- Tested on: MFM-223
- measurement_description: normalised response (% of control), CellTiter-Glo; higher = more viable cells (100 = DMSO, 0 = benzethonium chloride kill control)
- condition_info: incubation time: 72 h
Entry rule: numbers only, all in %.

What value of normalised response has been reported for the following molecule? O=C(O)CNC(=O)c1c(O)c2ccccc2n(Cc2ccccc2)c1=O [IOX-2] (50000 nM) 98.2

What value of normalised response has been reported for the following molecule? CN(C)C(=N)NC(=N)N [Metformin] (100000 nM) 90.3

What value of normalised response has been reported for the following molecule? CC1(C)CCC(c2ccc(Cl)cc2)=C(CN2CCN(c3ccc(C(=O)NS(=O)(=O)c4ccc(N[C@H](CCN5CCOCC5)CSc5ccccc5)c(S(=O)(=O)C(F)(F)F)c4)cc3)CC2)C1 [Navitoclax] (10000 nM) 55.6

What value of normalised response has been reported for the following molecule? Cc1cc(Nc2nc(N[C@@H](C)c3ncc(F)cn3)ncc2Cl)[nH]n1 [AZD1480] (1000 nM) 50.8

What value of normalised response has been reported for the following molecule? O=[N+]([O-])c1ccc2c(c1)S(=O)(=O)C=C2 [Stattic] (50000 nM) 0.11

What value of normalised response has been reported for the following molecule? CCNC(=O)CCC/C=C\C[C@@H]1[C@@H](/C=C/[C@@H](O)CCc2ccccc2)[C@H](O)C[C@@H]1O [Bimatoprost] (5500 nM) 88.2

What value of normalised response has been reported for the following molecule? Cc1cn(-c2cc(NC(=O)c3ccc(C)c(Nc4nccc(-c5cccnc5)n4)c3)cc(C(F)(F)F)c2)cn1 [Nilotinib] (10000 nM) 97.2

* * *

- Tested on: CAL-148
- measurement_description: normalised viability (% of control), CellTiter-Blue; higher = more viable cells (about 100 = DMSO control)
- condition_info: incubation time: 72 h
Checkbox rule: normalised viability lower than 30% = YES; normalised viability not lower than 30% = NO.

Item Nc1ccn([C@@H]2O[C@H](CO)[C@@H](O)C2(F)F)c(=O)n1 [Gemcitabine] (300 nM) : normalised viability beneath 30%, strictly? NO

Item CC(=O)[C@]1(O)Cc2c(O)c3c(c(O)c2[C@@H](O[C@H]2C[C@H](N)[C@H](O)[C@H](C)O2)C1)C(=O)c1ccccc1C3=O [Idarubicin] (300 nM) : normalised viability beneath 30%, strictly? YES

Item COc1c2occc2cc2ccc(=O)oc12 [Methoxsalen] (3000 nM) : normalised viability beneath 30%, strictly? NO

Item CC1(C)CCC(c2ccc(Cl)cc2)=C(CN2CCN(c3ccc(C(=O)NS(=O)(=O)c4ccc(N[C@H](CCN5CCOCC5)CSc5ccccc5)c(S(=O)(=O)C(F)(F)F)c4)cc3)CC2)C1 [Navitoclax] (3000 nM) : normalised viability beneath 30%, strictly? NO

Item CCNC(=O)CCC/C=C\C[C@@H]1[C@@H](/C=C/[C@@H](O)CCc2ccccc2)[C@H](O)C[C@@H]1O [Bimatoprost] (1650 nM) : normalised viability beneath 30%, strictly? NO

* * *

Can you tell me normalised response for the items I'm about to list?
- Test system: CAL-51
- measurement_description: normalised response (% of control), CellTiter-Glo; higher = more viable cells (100 = DMSO, 0 = benzethonium chloride kill control)
- condition_info: incubation time: 72 h
Entry rule: numbers only, all in %.

Recall the recorded normalised response for CC(C)n1cnc2c(NCCc3ccc(O)cc3)nc(-c3csc4ccccc34)nc21 [StemRegenin 1] (1000 nM) with CAL-51 and state it. 121

Recall the recorded normalised response for CC(=O)[C@]1(O)Cc2c(O)c3c(c(O)c2[C@@H](O[C@H]2C[C@H](N)[C@H](O)[C@H](C)O2)C1)C(=O)c1ccccc1C3=O [Idarubicin] (0.1 nM) with CAL-51 and state it. 101

Recall the recorded normalised response for CNC(=O)c1ccccc1Sc1ccc2c(/C=C/c3ccccn3)n[nH]c2c1 [Axitinib] (1000 nM) with CAL-51 and state it. 59.4

Recall the recorded normalised response for CCn1c(C(=O)N(C2CC2)C2CC2)cc2c3c(ncn3C)c(Nc3cc(C)n(C)n3)nc21 (1000 nM) with CAL-51 and state it. 70.1

Recall the recorded normalised response for C=CCN(/C=C1/C(=O)O[C@H](COC)[C@@]2(C)C1=C(O)C(=O)C1=C2[C@H](OC(C)=O)C[C@]2(C)C(=O)CC[C@@H]12)CC=C [Sonolisib] (1 nM) with CAL-51 and state it. 75.2

* * *

- Test system: DU-4475
- measurement_description: normalised viability (% of control), CellTiter-Blue; higher = more viable cells (about 100 = DMSO control)
- condition_info: incubation time: 72 h
Can you tell me normalised viability for the items I'm about to list?
Entry rule: numbers only, all in %.

Recall the recorded normalised viability for CC(O)(CS(=O)(=O)c1ccc(F)cc1)C(=O)Nc1ccc(C#N)c(C(F)(F)F)c1 (centres undefined) [Bicalutamide] (300 nM) with DU-4475 and state it. 93.6

Recall the recorded normalised viability for CC[C@H](CO)Nc1nc(NCc2ccccc2)c2ncn(C(C)C)c2n1 [Roscovitine] (300 nM) with DU-4475 and state it. 97.5

Recall the recorded normalised viability for Cc1cc(Nc2nc(N[C@@H](C)c3ncc(F)cn3)ncc2Cl)[nH]n1 [AZD1480] (30 nM) with DU-4475 and state it. 109

Recall the recorded normalised viability for CCNC(=O)CCC/C=C\C[C@@H]1[C@@H](/C=C/[C@@H](O)CCc2ccccc2)[C@H](O)C[C@@H]1O [Bimatoprost] (165 nM) with DU-4475 and state it. 97.6

* * *

- Test system: BT-474
- measurement_description: normalised response (% of control), CellTiter-Glo; higher = more viable cells (100 = DMSO, 0 = benzethonium chloride kill control)
- condition_info: incubation time: 72 h
test_readout: normalised response
Record the result as number plus unit.

What value of normalised response has been reported for the following compound? C=CCn1c(=O)c2cnc(Nc3ccc(N4CCN(C)CC4)cc3)nc2n1-c1cccc(C(C)(C)O)n1 [MK1775] (100 nM) 87.1%

What value of normalised response has been reported for the following compound? CC(=O)[C@]1(O)Cc2c(O)c3c(c(O)c2[C@@H](O[C@H]2C[C@H](N)[C@H](O)[C@H](C)O2)C1)C(=O)c1ccccc1C3=O [Idarubicin] (10 nM) 98.7%

What value of normalised response has been reported for the following compound? CC[C@H](CO)Nc1nc(NCc2ccccc2)c2ncn(C(C)C)c2n1 [Seliciclib] (100 nM) 105%

What value of normalised response has been reported for the following compound? Cc1nc(C(=O)NCC(=O)O)c(O)c2ccc(Oc3ccccc3)cc12 [FG-4592] (100 nM) 101%

What value of normalised response has been reported for the following compound? Cc1cn(-c2cc(NC(=O)c3ccc(C)c(Nc4nccc(-c5cccnc5)n4)c3)cc(C(F)(F)F)c2)cn1 [Nilotinib] (100 nM) 99%

What value of normalised response has been reported for the following compound? CN(Cc1cnc2nc(N)nc(N)c2n1)c1ccc(C(=O)N[C@@H](CCC(=O)O)C(=O)O)cc1 [Methotrexate] (500 nM) 101%

What value of normalised response has been reported for the following compound? CO[C@@]12[C@H](COC(N)=O)C3=C(C(=O)C(C)=C(N)C3=O)N1C[C@@H]1N[C@@H]12 [Mitomycin C] (100 nM) 95.2%

* * *

- Test system: MCF-10A
- measurement_description: drug sensitivity score (DSS), CellTox Green (DSS (AUC-based score)); higher = stronger drug effect (viability inhibition or cytotoxicity); extreme values may be limits of the assay
- condition_info: incubation time: 72 h
Can you tell me drug sensitivity score for the items I'm about to list?
Keep it simple and answer with nothing but the number.

What value of drug sensitivity score has been reported for the following molecule? `CC1(COc2ccc3c(c2)ncn3-c2ccc3cccc(N4CCC(N)CC4)c3n2)COC1` 5.3

What value of drug sensitivity score has been reported for the following molecule? `O=C(CCCCCCC(=O)Nc1ccccc1)NO` 0

What value of drug sensitivity score has been reported for the following molecule? `O=C(O)CNC(=O)c1c(O)c2ccccc2n(Cc2ccccc2)c1=O` 0

What value of drug sensitivity score has been reported for the following molecule? `C=CCn1c(=O)c2cnc(Nc3ccc(N4CCN(C)CC4)cc3)nc2n1-c1cccc(C(C)(C)O)n1` 8.71

What value of drug sensitivity score has been reported for the following molecule? `Cc1cc(Nc2nc(N[C@@H](C)c3ncc(F)cn3)ncc2Cl)[nH]n1` 0
